Method: Stability in simulated intestinal fluid
Assay type: in vitro ADME
Condition Notes: 2 μM peptidomimetic, simulated intestinal fluid pH 7.5, 37° C., 24 h
Parameter: % degradation of peptidomimetics in 24 h when incubated with simulated intestinal fluid (%)

[
  {
    "Compound": "CCc1cc(OC)ccc1-c1ccc(CC(NC(=O)[C@H](CC(=O)O)NC(=O)[C@H](CO)NC(=O)[C@@H](NC(=O)[C@H](Cc2ccccc2)NC(=O)[C@@H](NC(=O)CNC(=O)[C@H](CCC(N)=O)NC(=O)[C@H](C)NC(=O)[C@@H](N)Cc2c[nH]cn2)[C@@H](C)O)[C@@H](C)O)C(=O)NC(CCCc2ccc(Cl)cc2C)C(N)=O)cc1 (single isomer, unassigned)",
    "Experimental Result": 40
  },
  {
    "Compound": "CCc1cc(OC)ccc1-c1ccc(CC(NC(=O)[C@H](CC(=O)O)NC(=O)[C@H](CO)NC(=O)[C@@H](NC(=O)[C@H](Cc2ccccc2)NC(=O)[C@@H](NC(=O)CNC(=O)C(CCC#N)NC(=O)C(C)(C)NC(=O)[C@@H](N)Cc2c[nH]cn2)[C@@H](C)O)[C@@H](C)O)C(=O)NC(CCCc2ccc(C(F)(F)F)cc2F)C(N)=O)cc1 (single isomer, unassigned)",
    "Experimental Result": "00"
  },
  {
    "Compound": "CCc1cc(OC)ccc1-c1ccc(CC(NC(=O)[C@H](CC(=O)O)NC(=O)[C@H](CO)NC(=O)[C@@H](NC(=O)[C@H](Cc2ccccc2)NC(=O)[C@@H](NC(=O)CNC(=O)[C@H](CCC(N)=O)NC(=O)C2(C)CCCN2C(=O)[C@@H](N)Cc2c[nH]cn2)[C@@H](C)O)[C@@H](C)O)C(=O)NC(CCCc2ccc(Cl)cc2C)C(N)=O)cc1 (single isomer, unassigned)",
    "Experimental Result": 43
  }
]

###

Test system: C57BL/6J mice (mild hyperglycemic)
Method: In vivo glucose reduction, acute single dose 120-min time-course, i.p. route
Parameters: species or system mouse; unit not given here
Condition Notes: male C57BL/6J mice, 30 nM/kg i.p., 120 min
Non-standard residues stand in square brackets, D forms with d. Residues, ends and D or L forms follow the SMILES beside them. ξ: configuration not given here. ξBip(2'-Et-4'-OMe) = CCc1cc(OC)ccc1-c1ccc(CC(N)C(=O)O)cc1; ξNva(5-(3-Cl-Ph)) = NC(CCCc1cccc(Cl)c1)C(=O)O
Listed next: entries and their corresponding blood glucose levels.

[
  {
    "Compound": "CCc1cc(OC)ccc1-c1ccc(CC(NC(=O)[C@H](CC(=O)O)NC(=O)[C@H](CO)NC(=O)[C@@H](NC(=O)[C@H](Cc2ccccc2)NC(=O)[C@@H](NC(=O)CNC(=O)C(CCC#N)NC(=O)C(C)(C)NC(=O)[C@@H](N)Cc2c[nH]cn2)[C@@H](C)O)[C@@H](C)O)C(=O)NC(CCCc2ccccc2)C(N)=O)cc1 (single isomer, unassigned)",
    "blood glucose levels": 118
  },
  {
    "Compound": "CCc1cc(OC)ccc1-c1ccc(CC(NC(=O)[C@H](CC(=O)O)NC(=O)[C@H](CO)NC(=O)[C@@H](NC(=O)[C@H](Cc2ccccc2)NC(=O)[C@@H](NC(=O)CNC(=O)C(CCC#N)NC(=O)C(C)(C)NC(=O)[C@@H](N)Cc2c[nH]cn2)[C@@H](C)O)[C@@H](C)O)C(=O)NC(CCCc2cc(C)cc(C)c2)C(N)=O)cc1 (single isomer, unassigned)",
    "blood glucose levels": 117
  },
  {
    "Compound": "CCc1cc(OC)ccc1-c1ccc(CC(NC(=O)[C@H](CC(=O)O)NC(=O)[C@H](CO)NC(=O)[C@@H](NC(=O)[C@H](Cc2ccccc2)NC(=O)[C@@H](NC(=O)CNC(=O)[C@H](CCC(N)=O)NC(=O)[C@H](C)NC(=O)[C@@H](N)Cc2c[nH]cn2)[C@@H](C)O)[C@@H](C)O)C(=O)NC(CCCc2cccc(Cl)c2)C(N)=O)cc1 (stereo partly shown) [Seq. ID. 15] (H-HAQGTFTSD[ξBip(2'-Et-4'-OMe)][ξNva(5-(3-Cl-Ph))]-NH2)",
    "blood glucose levels": 118
  },
  {
    "Compound": "CCc1cc(OC)ccc1-c1ccc(CC(NC(=O)[C@H](CC(=O)O)NC(=O)[C@H](CO)NC(=O)[C@@H](NC(=O)C(C)(Cc2ccccc2F)NC(=O)[C@@H](NC(=O)CNC(=O)C(CCC#N)NC(=O)C(C)(C)NC(=O)[C@@H](N)Cc2c[nH]cn2)[C@@H](C)O)[C@H](C)O)C(=O)NC(CCCc2ccccc2F)C(N)=O)cc1 (single isomer, unassigned)",
    "blood glucose levels": 118
  }
]

###

Method: Stability in human plasma
Assay type: in vitro ADME
Condition Notes: 2 μM peptidomimetic, pooled human plasma, 37° C., 24 h
Listed next: entries and their corresponding % degradation of peptidomimetics in 24 h when incubated with human plasma.
Parameter: % degradation of peptidomimetics in 24 h when incubated with human plasma (%)

[
  {
    "Compound": "CCc1cc(OC)ccc1-c1ccc(CC(NC(=O)[C@H](CC(=O)O)NC(=O)[C@H](CO)NC(=O)[C@@H](NC(=O)[C@H](Cc2ccccc2)NC(=O)[C@@H](NC(=O)CNC(=O)[C@H](CCC(N)=O)NC(=O)[C@H](CO)NC(=O)[C@@H](N)Cc2c[nH]cn2)[C@@H](C)O)[C@@H](C)O)C(=O)NC(CCCc2ccccc2C(F)(F)F)C(N)=O)cc1 (single isomer, unassigned)",
    "Unit Descriptor": "%",
    "Experimental Result": 78
  },
  {
    "Compound": "CCc1cc(OC)ccc1-c1ccc(CC(C(=O)N(C)C(CCCc2ccccc2)C(N)=O)N(C)C(=O)[C@H](CC(=O)O)NC(=O)[C@H](CO)NC(=O)[C@@H](NC(=O)C(C)(Cc2ccccc2F)NC(=O)[C@@H](NC(=O)CNC(=O)C(CCC#N)NC(=O)C(C)(C)NC(=O)[C@@H](N)Cc2c[nH]cn2)[C@H](C)O)[C@H](C)O)cc1 (single isomer, unassigned)",
    "Unit Descriptor": "%",
    "Experimental Result": 80
  },
  {
    "Compound": "CCc1cc(OC)ccc1-c1ccc(CC(NC(=O)[C@H](CC(=O)O)NC(=O)[C@H](CO)NC(=O)[C@@H](NC(=O)C(C)(Cc2ccccc2F)NC(=O)[C@@H](NC(=O)CNC(=O)C(CCC#N)NC(=O)C(C)(C)NC(=O)[C@@H](N)Cc2c[nH]cn2)[C@H](C)O)[C@H](C)O)C(=O)NC(CCCc2ccccc2F)C(N)=O)cc1 (single isomer, unassigned)",
    "Unit Descriptor": "%",
    "Experimental Result": "00"
  }
]

###

Method: Stability in liver microsomes
Type: in vitro ADME
Condition Notes: 2 μM peptidomimetic, human liver microsomes, 37° C., 24 h
Listed next: entries and their corresponding % degradation of peptidomimetics in 24 h when incubated with liver microsomes.
Parameter: % degradation of peptidomimetics in 24 h when incubated with liver microsomes

[
  {
    "Compound": "CCc1cc(OC)ccc1-c1ccc(CC(NC(=O)[C@H](CC(=O)O)NC(=O)[C@H](CO)NC(=O)[C@@H](NC(=O)[C@H](Cc2ccccc2)NC(=O)[C@@H](NC(=O)CNC(=O)C(CCC#N)NC(=O)C(C)(C)NC(=O)[C@@H](N)Cc2c[nH]cn2)[C@@H](C)O)[C@@H](C)O)C(=O)NC(CCCc2ccc(Cl)cc2C)C(N)=O)cc1 (single isomer, unassigned) [compound 32]",
    "Experimental Result": "100%"
  },
  {
    "Compound": "CCc1cc(OC)ccc1-c1ccc(CC(NC(=O)[C@H](CC(=O)O)NC(=O)[C@H](CO)NC(=O)[C@@H](NC(=O)[C@H](Cc2ccccc2)NC(=O)[C@@H](NC(=O)CNC(=O)[C@H](CCC(N)=O)NC(=O)C2(C)CCCN2C(=O)[C@@H](N)Cc2c[nH]cn2)[C@@H](C)O)[C@@H](C)O)C(=O)NC(CCCc2ccc(Cl)cc2C)C(N)=O)cc1 (single isomer, unassigned) [compound 12]",
    "Experimental Result": "80%"
  },
  {
    "Compound": "CCc1cc(OC)ccc1-c1ccc(CC(NC(=O)[C@H](CC(=O)O)NC(=O)[C@H](CO)NC(=O)[C@@H](NC(=O)[C@H](Cc2ccccc2)NC(=O)[C@@H](NC(=O)CNC(=O)[C@H](CCC(N)=O)NC(=O)[C@H](C)NC(=O)[C@@H](N)Cc2c[nH]cn2)[C@@H](C)O)[C@@H](C)O)C(=O)NC(CCCc2ccc(Cl)cc2C)C(N)=O)cc1 (single isomer, unassigned) [compound 16]",
    "Experimental Result": "78%"
  }
]

###

Listed next: entries and their corresponding half-life at 2 μM.
Method: Stability in simulated gastric fluid
Format: in vitro ADME
Condition Notes: 2 μM peptidomimetic, simulated gastric fluid pH 1.5, 37° C.; read-out: half-life (t1/2) when incubated with simulated gastric fluid
Non-standard residues stand in square brackets, D forms with d. Residues, ends and D or L forms follow the SMILES beside them. ξ: configuration not given here. Leu(5,5,5,5',5',5'-F6) = N[C@@H](CC(C(F)(F)F)C(F)(F)F)C(=O)O; ξBip(2'-Et-4'-OMe) = CCc1cc(OC)ccc1-c1ccc(CC(N)C(=O)O)cc1; ξNva(5-(3-Cl-Ph)) = NC(CCCc1cccc(Cl)c1)C(=O)O; ξαMePhe(2-F) = CC(N)(Cc1ccccc1F)C(=O)O; Aib = CC(C)(N)C(=O)O

[
  {
    "Compound": "CCc1cc(OC)ccc1-c1ccc(CC(NC(=O)[C@H](CC(=O)O)NC(=O)[C@H](CO)NC(=O)[C@@H](NC(=O)C(C)(Cc2ccccc2F)NC(=O)[C@@H](NC(=O)CNC(=O)[C@H](CC(C(F)(F)F)C(F)(F)F)NC(=O)C(C)(C)NC(=O)[C@@H](N)Cc2c[nH]cn2)[C@H](C)O)[C@H](C)O)C(=O)NC(CCCc2ccccc2F)C(N)=O)cc1 (stereo partly drawn)",
    "half-life at 2 μM": "0.5 h"
  },
  {
    "Compound": "CCc1cc(OC)ccc1-c1ccc(CC(CNC(CCCc2ccccc2F)C(N)=O)NC[C@H](CC(=O)O)NC(=O)[C@H](CO)NC(=O)[C@@H](NC(=O)C(C)(Cc2ccccc2F)NC(=O)[C@@H](NC(=O)CNC(=O)[C@H](CCC(N)=O)NC(=O)C(C)(C)NC(=O)[C@@H](N)Cc2c[nH]cn2)[C@H](C)O)[C@H](C)O)cc1 (single isomer, unassigned)",
    "half-life at 2 μM": "> 24 h"
  },
  {
    "Compound": "CCc1cc(OC)ccc1-c1ccc(CC(NC(=O)[C@H](CC(=O)O)NC(=O)[C@H](CO)NC(=O)[C@@H](NC(=O)C(C)(Cc2ccccc2F)NC(=O)[C@@H](NC(=O)CNC(=O)[C@H](CC(C(F)(F)F)C(F)(F)F)NC(=O)C(C)(C)NC(=O)[C@@H](N)Cc2c[nH]cn2)[C@@H](C)O)[C@@H](C)O)C(=O)NC(CCCc2cccc(Cl)c2)C(N)=O)cc1 (stereo partly drawn) [compound 236] (H-H[Aib][Leu(5,5,5,5',5',5'-F6)]GT[ξαMePhe(2-F)]TSD[ξBip(2'-Et-4'-OMe)][ξNva(5-(3-Cl-Ph))]-NH2)",
    "half-life at 2 μM": "> 24 h"
  }
]

Data origin, for the record: patent US8883963B2
